Data origin: patent US20220363718A1

- TEST SYSTEM: T1, Biotinylated human TSLP (human, biotinylated)
- T1 construct: also called hTSLP; thymic stromal lymphopoietin
- T1 sequence (chain, as listed by the source limits assumed): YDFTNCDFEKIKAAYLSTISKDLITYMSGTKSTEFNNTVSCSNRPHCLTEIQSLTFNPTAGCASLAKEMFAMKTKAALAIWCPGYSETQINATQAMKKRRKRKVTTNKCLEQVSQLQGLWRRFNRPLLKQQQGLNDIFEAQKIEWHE
- ASSAY EXPLANATION: SPR, biotinylated hTSLP on streptavidin chip; Example 4, Ac-(SEQ ID NO: 4)
QUANTITY KIND: Kd (nM)
API: value field is a number in nM; no unit string.

Task: For the binder CQWXEDCWRGXC (not fully specified; N-term acetyl; CQW[tBuA]EDCWRG[4-FPhe]C as printed; 3 Cys on TATA) [Example 4] , what Kd is on record?
Output: 2.7
